Catalogue of DPPH IC50 values
- ASSAY TEXT: DPPH free radical scavenging activity
- ASSAY CONTEXT: isolated compounds; means ± SEs, n = 3
Reply with a number, then the unit it belongs to.

Please review the following examples before continuing.
{"columns": ["COMPOUND", "DPPH IC50"],
 "data": [
  ["C/C(=C\\CC[C@@H](C)[C@H]1CC[C@@]2(C)[C@@H]3CC[C@H]4C(C)(C)[C@@H](O)CC[C@@]45C[C@@]35CC[C@]12C)C(=O)O", "12.38 ± 3.0 µg/mL"],
  ["C/C(=C\\CC[C@@H](C)[C@H]1CC[C@@]2(C)[C@@H]3CC[C@H]4C(C)(C)C(=O)CC[C@@]45C[C@@]35CC[C@]12C)C(=O)O", "17.16 ± 2.98 µg/mL"],
  ["C=C(CCC(C)C1CCC2(C)C3CCC4C(C)(C)C(=O)CCC45CC35CCC12C)C(C)C(=O)O (stereo not drawn)", "42.45 ± 4.5 µg/mL"]
]}

Look up DPPH IC50: Cc1c(C)c2c(c(C)c1O)CCC(C)(C(=O)O)O2 (stereo not drawn) [Trolox, reference compound]
7.17 ± 0.13 µg/mL

# repeat for C=C(CCC(C)C1CCC2(C)C3CCC4C(C)(C)C(O)CCC45CC35CCC12C)C(C)C(=O)O (stereo not drawn)
132.30 ± 13.9 µg/mL

# repeat for CC(C)=CCC[C@@H](C)[C@H]1CC[C@@]2(C)[C@@H]3CC[C@H]4C(C)(C)[C@@H](O)CC[C@@]45C[C@@]35CC[C@]12C
120.21 ± 11.2 µg/mL

---

- ASSAY SYSTEM: α-glucosidase (Saccharomyces cerevisiae, UniProt P53341)
- Sequence (P53341 whole entry): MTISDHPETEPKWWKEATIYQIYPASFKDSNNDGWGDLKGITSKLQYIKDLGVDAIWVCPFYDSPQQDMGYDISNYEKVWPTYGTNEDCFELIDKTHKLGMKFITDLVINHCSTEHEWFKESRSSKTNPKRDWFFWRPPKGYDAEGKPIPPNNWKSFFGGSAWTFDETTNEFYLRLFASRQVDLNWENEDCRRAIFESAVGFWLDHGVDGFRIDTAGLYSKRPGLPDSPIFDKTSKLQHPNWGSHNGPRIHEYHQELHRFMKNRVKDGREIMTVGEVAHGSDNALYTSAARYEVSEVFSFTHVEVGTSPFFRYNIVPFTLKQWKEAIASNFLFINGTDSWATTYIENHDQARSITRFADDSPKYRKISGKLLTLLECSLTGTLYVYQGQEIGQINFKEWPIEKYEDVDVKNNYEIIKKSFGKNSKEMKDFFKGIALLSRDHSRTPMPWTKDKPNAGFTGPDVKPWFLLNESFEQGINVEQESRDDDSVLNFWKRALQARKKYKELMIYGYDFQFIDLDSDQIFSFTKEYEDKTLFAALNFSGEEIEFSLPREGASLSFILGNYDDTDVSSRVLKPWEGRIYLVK
- ASSAY TEXT: Determination of inhibitory type by kinetic analysis (Lineweaver–Burk, Dixon plots)
- Assay type: biochemical
- ASSAY CONTEXT: Lineweaver–Burk plot; inhibitor 0, 0.2, 2 µg/mL; p-NPG substrate
RESULT TYPE: Inhibition Mode

Please review the following examples before continuing.
{"columns": ["MOLECULE", "Inhibition Mode"],
 "data": [
  ["C/C(=C\\CC[C@@H](C)[C@H]1CC[C@@]2(C)[C@@H]3CC[C@H]4C(C)(C)C(=O)CC[C@@]45C[C@@]35CC[C@]12C)C(=O)O [Mangiferonic acid (4), mangiferonic acid]", "Mixed inhibition"],
  ["C/C(=C\\CC[C@@H](C)[C@H]1CC[C@@]2(C)[C@@H]3CC[C@H]4C(C)(C)[C@@H](O)CC[C@@]45C[C@@]35CC[C@]12C)C(=O)O [Mangiferolic acid (1), mangiferolic acid]", "Uncompetitive"],
  ["C=C(CCC(C)C1CCC2(C)C3CCC4C(C)(C)C(=O)CCC45CC35CCC12C)C(C)C(=O)O (centres unmarked) [Ambonic acid (3), ambonic acid]", "Mixed inhibition"],
  ["C=C(CCC(C)C1CCC2(C)C3CCC4C(C)(C)C(O)CCC45CC35CCC12C)C(C)C(=O)O (centres unmarked) [Ambolic acid (5), ambolic acid]", "Mixed inhibition"]
]}

Lab note: next molecule to report on.
Form entry - test system: α-glucosidase (Saccharomyces cerevisiae, UniProt P53341); read-out: Inhibition Mode; molecule: CC(C)=CCC[C@@H](C)[C@H]1CC[C@@]2(C)[C@@H]3CC[C@H]4C(C)(C)[C@@H](O)CC[C@@]45C[C@@]35CC[C@]12C [Cycloartenol (2), cycloartenol]
Uncompetitive

This collection of values is drawn from paper PMC6789647.
